Some compounds, each annotated with its measured log10 of TGI.
tested on: A549; test: Cytotoxicity against human A549 cells after 72 hrs by sulforhodamine B assay; format: functional; details: A549, 72 h
Positions of bridges follow the written chain, without caps; N, C: chain ends. Non-standard residues stand in square brackets, D forms with d. Residues, ends and D or L forms follow the SMILES beside them. Chains are numbered I, II in the order given. *: point of attachment. Quinoxaline2carbonyl = O=C(c1cnc2ccccc2n1)*; NMeV = CN[C@H](C(=O)O)C(C)C; NMeC = CN[C@@H](CS)C(=O)O
METRIC: log10 of TGI (log10 of the value in µM)

| COMPOUND | METRIC | REPORTED VALUE |
| --- | --- | --- |
| CN1C[C@@H](NC(=O)c2nc3ccccc3cc2O)C(=O)NCC(=O)N(C)[C@H]2CSSC[C@@H](C(=O)N(C)[C@@H](CN)C1=O)N(C)C(=O)CNC(=O)[C@H](NC(=O)c1nc3ccccc3cc1O)CN(C)C(=O)[C@H](CN)N(C)C2=O | log10 of TGI | 0.95 |
| CC(C)[C@H]1C(=O)OC[C@@H](NC(=O)c2cnc3ccccc3n2)C(=O)N[C@@H](C)C(=O)N(C)[C@H]2CSSC[C@@H](C(=O)N1C)N(C)C(=O)[C@H](C)NC(=O)[C@H](NC(=O)c1cnc3ccccc3n1)COC(=O)[C@H](C(C)C)N(C)C2=O [TRIOSTIN] (I: Quinoxaline2carbonyl-[dS]A[NMeC][NMeV] / II: Quinoxaline2carbonyl-[dS]A[NMeC][NMeV]; ester I:1-II:C, I:C-II:1; disulfide I:3-II:3) | log10 of TGI | 0.22 |
| CSC[C@H]1C(=O)SC[C@@H](NC(=O)c2nc3ccccc3cc2O)C(=O)NCC(=O)N(C)[C@H]2SSC[C@@H](C(=O)N1C)N(C)C(=O)CNC(=O)[C@H](NC(=O)c1nc3ccccc3cc1O)CSC(=O)[C@H](CSC)N(C)C2=O [THIOCORALINE] | log10 of TGI | -1.62 |
| CSC[C@H]1C(=O)OC[C@@H](NC(=O)c2nc3ccccc3cc2O)C(=O)NCC(=O)N(C)[C@H]2CSSC[C@@H](C(=O)N1C)N(C)C(=O)CNC(=O)[C@H](NC(=O)c1nc3ccccc3cc1O)COC(=O)[C@H](CSC)N(C)C2=O | log10 of TGI | 0.44 |
| CSC[C@H]1C(=O)N(C)C[C@@H](NC(=O)c2nc3ccccc3cc2O)C(=O)NCC(=O)N(C)[C@H]2CSSC[C@@H](C(=O)N1C)N(C)C(=O)CNC(=O)[C@H](NC(=O)c1nc3ccccc3cc1O)CN(C)C(=O)[C@H](CSC)N(C)C2=O | log10 of TGI | -1.70 |
| CN1C[C@@H](NC(=O)c2nc3ccccc3cc2O)C(=O)NCC(=O)N(C)[C@H]2CSSC[C@@H](C(=O)N(C)[C@@H](CCN)C1=O)N(C)C(=O)CNC(=O)[C@H](NC(=O)c1nc3ccccc3cc1O)CN(C)C(=O)[C@H](CCN)N(C)C2=O | log10 of TGI | 0.95 |

====

Some molecules, each annotated with its measured GI50.
system: A549; assay: Cytotoxicity against human A549 cells after 72 hrs by sulforhodamine B assay; assay type: functional; conditions: A549, 72 h
Positions of bridges follow the written chain, without caps; N, C: chain ends. Non-standard residues stand in square brackets, D forms with d. Residues, ends and D or L forms follow the SMILES beside them. Chains are numbered I, II in the order given. *: point of attachment. Quinoxaline2carbonyl = O=C(c1cnc2ccccc2n1)*; NMeV = CN[C@H](C(=O)O)C(C)C; NMeC = CN[C@@H](CS)C(=O)O

| MOLECULE | LIMIT QUALIFIER | GI50 (µM) |
| --- | --- | --- |
| CC(C)[C@H]1C(=O)OC[C@@H](NC(=O)c2cnc3ccccc3n2)C(=O)N[C@@H](C)C(=O)N(C)[C@H]2CSSC[C@@H](C(=O)N1C)N(C)C(=O)[C@H](C)NC(=O)[C@H](NC(=O)c1cnc3ccccc3n1)COC(=O)[C@H](C(C)C)N(C)C2=O [TRIOSTIN] (I: Quinoxaline2carbonyl-[dS]A[NMeC][NMeV] / II: Quinoxaline2carbonyl-[dS]A[NMeC][NMeV]; ester I:1-II:C, I:C-II:1; disulfide I:3-II:3) | = | 0.34 |
| CN1C[C@@H](NC(=O)c2nc3ccccc3cc2O)C(=O)NCC(=O)N(C)[C@H]2CSSC[C@@H](C(=O)N(C)[C@@H](CN)C1=O)N(C)C(=O)CNC(=O)[C@H](NC(=O)c1nc3ccccc3cc1O)CN(C)C(=O)[C@H](CN)N(C)C2=O | = | 8.95 |
| CN1C[C@@H](NC(=O)c2nc3ccccc3cc2O)C(=O)NCC(=O)N(C)[C@H]2CSSC[C@@H](C(=O)N(C)[C@@H](CCN)C1=O)N(C)C(=O)CNC(=O)[C@H](NC(=O)c1nc3ccccc3cc1O)CN(C)C(=O)[C@H](CCN)N(C)C2=O | = | 8.95 |
| CSC[C@H]1C(=O)OC[C@@H](NC(=O)c2nc3ccccc3cc2O)C(=O)NCC(=O)N(C)[C@H]2CSSC[C@@H](C(=O)N1C)N(C)C(=O)CNC(=O)[C@H](NC(=O)c1nc3ccccc3cc1O)COC(=O)[C@H](CSC)N(C)C2=O | = | 0.311 |
| COCCOCCOCC(=O)NCC[C@H]1C(=O)N(C)C[C@@H](NC(=O)c2nc3ccccc3cc2O)C(=O)NCC(=O)N(C)[C@H]2CSSC[C@@H](C(=O)N1C)N(C)C(=O)CNC(=O)[C@H](NC(=O)c1nc3ccccc3cc1O)CN(C)C(=O)[C@H](CCNC(=O)COCCOCCOC)N(C)C2=O | > | 6.96 |
| CC(C)[C@H]1C(=O)N(C)C[C@@H](NC(=O)c2cnc3ccccc3n2)C(=O)N[C@@H](C)C(=O)N(C)[C@H]2CSSC[C@@H](C(=O)N1C)N(C)C(=O)[C@H](C)NC(=O)[C@H](NC(=O)c1cnc3ccccc3n1)CN(C)C(=O)[C@H](C(C)C)N(C)C2=O | > | 8.98 |
| CSC[C@H]1C(=O)N(C)C[C@@H](NC(=O)c2nc3ccccc3cc2O)C(=O)NCC(=O)N(C)[C@H]2CSSC[C@@H](C(=O)N1C)N(C)C(=O)CNC(=O)[C@H](NC(=O)c1nc3ccccc3cc1O)CN(C)C(=O)[C@H](CSC)N(C)C2=O | = | 0.00339 |

====

test system: A549; assay: Cytotoxicity against human A549 cells after 72 hrs by sulforhodamine B assay; format: functional; conditions: A549, 72 h
Some compounds, each annotated with its measured TGI.

| TEST SMILES | ASSAYED TARGET | TGI |
| --- | --- | --- |
| CSC[C@H]1C(=O)N(C)C[C@@H](NC(=O)c2cnc3ccccc3n2)C(=O)NCC(=O)N(C)[C@H]2CSSC[C@@H](C(=O)N1C)N(C)C(=O)CNC(=O)[C@H](NC(=O)c1cnc3ccccc3n1)CN(C)C(=O)[C@H](CSC)N(C)C2=O | A549 | > 8.92 µM |
| CC(C)[C@H]1C(=O)N(C)C[C@@H](NC(=O)c2cnc3ccccc3n2)C(=O)N[C@@H](C)C(=O)N(C)[C@H]2CSSC[C@@H](C(=O)N1C)N(C)C(=O)[C@H](C)NC(=O)[C@H](NC(=O)c1cnc3ccccc3n1)CN(C)C(=O)[C@H](C(C)C)N(C)C2=O | A549 | > 8.98 µM |
| COCCOCCOCC(=O)NCC[C@H]1C(=O)N(C)C[C@@H](NC(=O)c2nc3ccccc3cc2O)C(=O)NCC(=O)N(C)[C@H]2CSSC[C@@H](C(=O)N1C)N(C)C(=O)CNC(=O)[C@H](NC(=O)c1nc3ccccc3cc1O)CN(C)C(=O)[C@H](CCNC(=O)COCCOCCOC)N(C)C2=O | A549 | > 6.96 µM |
| CC(C)[C@H]1C(=O)OC[C@@H](NC(=O)c2nc3ccccc3cc2O)C(=O)N[C@@H](C)C(=O)N(C)[C@H]2CSSC[C@@H](C(=O)N1C)N(C)C(=O)[C@H](C)NC(=O)[C@H](NC(=O)c1nc3ccccc3cc1O)COC(=O)[C@H](C(C)C)N(C)C2=O | A549 | > 8.92 µM |
| COCCOCCOCC(=O)NC[C@H]1C(=O)N(C)C[C@@H](NC(=O)c2nc3ccccc3cc2O)C(=O)NCC(=O)N(C)[C@H]2CSSC[C@@H](C(=O)N1C)N(C)C(=O)CNC(=O)[C@H](NC(=O)c1nc3ccccc3cc1O)CN(C)C(=O)[C@H](CNC(=O)COCCOCCOC)N(C)C2=O | A549 | > 7.09 µM |

These data points were gathered from ChEMBL document CHEMBL2396558.
